Listed here are compounds together with their documented EC50.
biological target: Muscarinic acetylcholine receptor M5 (Homo sapiens, UniProt P08912); assay: Agonist activity at human muscarinic M5 receptor expressed in BHK-21 cells assessed as increase of acetylcholine-induced calcium flux by FLIPR assay
Sequence (P08912 whole entry): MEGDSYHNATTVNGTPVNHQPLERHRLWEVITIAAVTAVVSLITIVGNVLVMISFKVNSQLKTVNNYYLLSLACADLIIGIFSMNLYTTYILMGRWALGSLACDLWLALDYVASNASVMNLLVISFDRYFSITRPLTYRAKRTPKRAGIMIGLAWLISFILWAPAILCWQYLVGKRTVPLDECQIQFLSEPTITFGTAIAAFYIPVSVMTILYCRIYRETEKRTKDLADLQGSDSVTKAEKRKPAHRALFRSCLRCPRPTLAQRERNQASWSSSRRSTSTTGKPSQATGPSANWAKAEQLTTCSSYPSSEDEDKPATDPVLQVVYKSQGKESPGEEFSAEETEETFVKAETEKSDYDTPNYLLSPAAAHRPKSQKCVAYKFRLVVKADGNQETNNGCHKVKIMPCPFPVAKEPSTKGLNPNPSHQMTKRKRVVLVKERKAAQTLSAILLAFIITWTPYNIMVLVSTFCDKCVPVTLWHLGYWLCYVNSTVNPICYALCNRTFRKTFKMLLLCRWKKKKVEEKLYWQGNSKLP

>  <mol>
Clc1ccc2c(c1)N=C(N1CCNCC1)c1ccccc1N2

>  <EC50 (nM)>
170

$$$$
>  <mol>
COc1ccc(CC(=O)NC2CCN(CCCN3C(=O)CCc4cc(F)c(F)cc43)CC2)cc1OC

>  <EC50 (nM)>
1200

$$$$

* * *

Protein target, amino acids: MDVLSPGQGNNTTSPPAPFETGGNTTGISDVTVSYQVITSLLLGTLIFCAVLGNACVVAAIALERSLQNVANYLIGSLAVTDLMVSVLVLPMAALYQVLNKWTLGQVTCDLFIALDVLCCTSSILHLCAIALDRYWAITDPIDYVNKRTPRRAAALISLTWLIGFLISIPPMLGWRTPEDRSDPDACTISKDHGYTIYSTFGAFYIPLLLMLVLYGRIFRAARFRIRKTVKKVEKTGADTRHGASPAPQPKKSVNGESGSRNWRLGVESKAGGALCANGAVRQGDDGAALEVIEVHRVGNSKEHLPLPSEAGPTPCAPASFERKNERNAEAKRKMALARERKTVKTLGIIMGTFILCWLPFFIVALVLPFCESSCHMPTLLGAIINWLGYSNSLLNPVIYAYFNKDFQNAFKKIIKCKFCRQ

>  <mol>
O=C(Cc1ccccc1)NC1CCN(CCCN2C(=O)COc3ccccc32)CC1

>  <Ki>
≥ 1000 nM

$$$$

* * *

Target: Muscarinic acetylcholine receptor M1 (Homo sapiens)
Sequence (whole entry): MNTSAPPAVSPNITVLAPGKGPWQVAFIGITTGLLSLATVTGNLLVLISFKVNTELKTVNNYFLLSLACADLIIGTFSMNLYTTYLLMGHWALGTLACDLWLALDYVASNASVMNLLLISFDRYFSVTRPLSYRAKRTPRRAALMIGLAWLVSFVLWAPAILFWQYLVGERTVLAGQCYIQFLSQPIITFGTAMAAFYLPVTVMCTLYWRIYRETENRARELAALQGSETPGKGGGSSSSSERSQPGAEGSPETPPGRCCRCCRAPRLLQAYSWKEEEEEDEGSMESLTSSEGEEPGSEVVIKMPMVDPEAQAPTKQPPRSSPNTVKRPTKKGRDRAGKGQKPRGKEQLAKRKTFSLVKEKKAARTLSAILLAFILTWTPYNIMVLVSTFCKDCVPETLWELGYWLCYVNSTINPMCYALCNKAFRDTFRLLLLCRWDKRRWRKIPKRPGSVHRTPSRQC
Test: Agonist activity at human muscarinic M1 receptor expressed in CHO-K1 cells assessed as increase of acetylcholine-induced calcium flux by FLIPR assay relative to acetylcholine
Format: functional, cell-based

>  <mol>
CC(=O)NC1CCN(CCCN2C(=O)COc3ccccc32)CC1

>  <measured-on>
Muscarinic acetylcholine receptor M1 (Homo sapiens)

>  <unit-spec>
%

>  <Emax>
74

$$$$
>  <mol>
CCC(=O)NC1CCN(CCCN2C(=O)COc3ccccc32)CC1

>  <measured-on>
Muscarinic acetylcholine receptor M1 (Homo sapiens)

>  <unit-spec>
%

>  <Emax>
78

$$$$
>  <mol>
COc1cccc(CC(=O)NC2CCN(CCCN3C(=O)COc4ccccc43)CC2)c1

>  <measured-on>
Muscarinic acetylcholine receptor M1 (Homo sapiens)

>  <unit-spec>
%

>  <Emax>
86

$$$$
>  <mol>
COc1ccc(CC(=O)NC2CCN(CCCN3C(=O)CCc4cc(F)c(F)cc43)CC2)cc1OC

>  <measured-on>
Muscarinic acetylcholine receptor M1 (Homo sapiens)

>  <unit-spec>
%

>  <Emax>
91

$$$$
